Target: LC3B (Homo sapiens)
Test: Fluorescence Polarization (FP) Assay: displacement of FITC-labeled peptide from GST-LC3B
Assay type: binding
Settings: Fluorescence Polarization assay; GST-LC3B 180 nM, FITC-labeled peptide 18 nM, 25° C.; read-out: IC50
Protocol: The compounds of the present invention for regulating the autophagy-related protein LC3B were tested by Fluorescence Polarization (FP) Assay. Fluorescence Polarization (FP) Assay Test
pIC50: −log10 of the molar value.
Form field: pIC50 (one value per entry).
property.measured: pIC50

O=C1CC(c2cccc3c2OCCO3)CC(=O)C1=CNCCN1CCN(CCO)CC1 (stereo not shown) : 4.82 to 5.52
O=C1CC(c2ccccc2)CC(=O)C1=CNCCN1CCN(C(=O)c2ccc(Cl)cc2)CC1 (stereo not shown) : > 5.52
CN(C)CCNC=C1C(=O)CC(c2cscc2-c2ccccc2)CC1=O (stereo not shown) : > 5.52
COC(=O)C(CCSC)NC=C1C(=O)CC(c2ccccc2)CC1=O (stereo not shown) : 4.00 to 4.82

###

biological target: LC3B (Homo sapiens, UniProt Q9GZQ8); test: Fluorescence Polarization (FP) Assay: displacement of FITC-labeled peptide from GST-LC3B; format: binding; conditions: Fluorescence Polarization assay; GST-LC3B 180 nM, FITC-labeled peptide 18 nM, 25° C.; read-out: IC50
property.measured: IC50

O=C1CC2c3ccccc3CCC2C(=O)/C1=C\NCCN1CCN(CCO)CC1 (centres unmarked) : 100 to 1000 µM
O=C1CC(c2ccccc2)CC(=O)C1=CN[C@@H](Cc1c[nH]cn1)C(=O)O (some centres unmarked) : 15 to 100 µM
CN(C)CCNC=C1C(=O)CC(c2c(F)cccc2F)CC1=O (centres unmarked) : < 3 µM
CN(C)CCNC=C1C(=O)CC(c2c(F)cccc2Br)CC1=O (centres unmarked) : < 3 µM
CN(C)C=C1C(=O)CC(c2ccc3ccccc3c2)CC1=O (centres unmarked) : < 3 µM

###

target: LC3B (Homo sapiens); assay: Fluorescence Polarization (FP) Assay: displacement of FITC-labeled peptide from GST-LC3B; format: binding; conditions: Fluorescence Polarization assay; GST-LC3B 180 nM, FITC-labeled peptide 18 nM, 25° C.; read-out: IC50
property.measured: IC50

CCOC(=O)[C@H](Cc1ccccc1)NC=C1C(=O)CC(c2ccccc2)CC1=O (stereo partly shown) [Compound 124] : 100 to 1000 µM
O=C1CC(c2ccc3cc[nH]c3c2)CC(=O)C1=CNCCN1CCN(CCO)CC1 (stereo not shown) [Compound 315] : < 3 µM
O=C1CC(c2ccsc2)CC(=O)C1=CO (stereo not shown) [Compound 428] : 3 to 15 µM
O=C1CC(c2cncnc2)CC(=O)C1=CNCCN1CCN(CCO)CC1 (stereo not shown) [Compound 90] : 100 to 1000 µM

###

target: LC3B (Homo sapiens, UniProt Q9GZQ8); assay: Fluorescence Polarization (FP) Assay: displacement of FITC-labeled peptide from GST-LC3B; format: binding; settings: Fluorescence Polarization assay; GST-LC3B 180 nM, FITC-labeled peptide 18 nM, 25° C.; read-out: IC50
pIC50: −log10 of the molar value.
Form field: pIC50 (one value per entry).
property.measured: pIC50

O=C1CC(c2ccccc2Br)CC(=O)C1=CO (stereo not drawn) : > 5.52
O=C1CC(c2ccccc2)CC(=O)C1=CNCCN1CCN(CCO)CC1 (stereo not drawn) : > 5.52
Cc1ccc(C2CC(=O)C(=CNCCN3CCN(CCCO)CC3)C(=O)C2)cc1 (stereo not drawn) : > 5.52
O=C1CC(c2ccccc2)CC(=O)C1=CNCCN1CCN(C(=O)c2ccc([N+](=O)[O-])cc2)CC1 (stereo not drawn) : 4.82 to 5.52
O=C1CC(c2ccccc2)CC(=O)C1=CNc1nc(C(=O)O)cs1 (stereo not drawn) : > 5.52
COc1ccc(C2CC(=O)C(=CNCCN3CCN(CCO)CC3)C(=O)C2)c2ccccc12 (stereo not drawn) : > 5.52
O=C1CC(c2ccccc2F)CC(=O)C1=CO (stereo not drawn) : > 5.52
CC1C(=O)C(=CNCCN2CCN(CCO)CC2)C(=O)CC1c1ccccc1 (stereo not drawn) : > 5.52
CN(C)C=C1C(=O)CC(c2cccc(C(=O)NCCCCc3ccccc3)c2)CC1=O (stereo not drawn) : 4.82 to 5.52
O=C1CC(c2ccc(C(=O)O)cc2)CC(=O)C1=CNCCN1CCOCC1 (stereo not drawn) : > 5.52
O=C1CC(c2ccc(N3CCOCC3)cc2)CC(=O)C1=CNCCN1CCN(CCO)CC1 (stereo not drawn) : 4.00 to 4.82
CN(C)C=C1C(=O)CC(c2cccc3[nH]ccc23)CC1=O (stereo not drawn) : > 5.52
O=C1/C(=C/NCCN2CCN(CCO)CC2)Oc2ccccc21 : 3.00 to 4.00
O=C1CCN(c2ccccc2)C(=O)/C1=C\NCCN1CCN(CCO)CC1 : 3.00 to 4.00
O=C1NC(=O)/C(=C\NCCN2CCN(CCO)CC2)S1 : 3.00 to 4.00
